Measured values drawn from paper PMC10397247 for this set.

- target under test: T1, P7mS
- T1 chain: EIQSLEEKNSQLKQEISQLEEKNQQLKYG
- assay remarks: two-hybrid library CC1;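 further: natural log of median RNA to DNA barcode read ratio; higher means stronger binding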
- experimental context: mean of both orientations
Listed here: items and their measured interaction score.
Response field accepts a number only; no unit should be typed.

Previously resolved entries follow.
ENSQLEEKISQLKQKNSRLKEEIARLEYGC [P5SC1]    -2.67
KNSQLKEEIQQLEEENQQLEEKIRQLKYGC [P6SC1]    -2.22
SPEDEIQQLEEEIAQLEQKNAALKEKNQALKYG [P3]    -2.58
KNERLKEEIQRLEQENQQLEEKISQLKYGC [P6SC2]    -1.75

Turning now to a further record.
Query: Would you mind telling me what interaction score value was observed for SPEDKIAQLKQKIQALKQENQQLEEENAALEYG [P4] ?
Response: -2.77
